These data points were gathered from paper PMC4041364.

Some binders, each annotated with its measured Kd.
system.under.test: Histone H1 (UniProt P07305 1-194)
Sequence (P07305 whole entry): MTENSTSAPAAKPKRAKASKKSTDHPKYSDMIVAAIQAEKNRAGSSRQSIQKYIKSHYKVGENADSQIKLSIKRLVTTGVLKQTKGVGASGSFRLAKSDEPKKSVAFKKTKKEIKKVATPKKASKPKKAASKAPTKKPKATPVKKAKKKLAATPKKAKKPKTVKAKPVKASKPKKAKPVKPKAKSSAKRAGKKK
measurement.description: fluorescence polarization

Problem: Read the entry BB94 dsDNA (dsDNA) DNA 1: TCTGTGAGTTGAACGCACACATCACAAAGGAG DNA 2: CTCCTTTGTGATGTGTGCGTTCAACTCACAGA and write its reported Kd.
Solution: 9 nM

Next binder, Kd to be filled in.
Problem: Given the binder TCTGTGAGTTGAACGCACACATCACAAAGGAG (ssDNA) [BB94 ssDNA] , write its reported Kd.
Solution: 10 nM
